Each record here notes measured inhibition at 20 µM.
# Tested on: RAW264.7
# experiment notes: Antiinflammatory activity against mouse RAW264.7 cells assessed as inhibition of LPS-induced NO production at 20 uM after 24 hrs by Griess assay
# Format: functional
Quick note: give the figure in %, leave out the unit.

Consider the worked cases shown below.
- compound: "C[C@]12CC[C@H]3[C@@H](CC=C4C[C@@H](O)CC[C@@]43C)[C@@H]1CC[C@@H]2C(=O)NCCO"
  tested target: "RAW264.7"
  inhibition at 20 µM [%]: 41.1
- compound: "C[C@]12CC[C@H]3[C@@H](CC=C4C[C@@H](O)CC[C@@]43C)[C@@H]1CC[C@@H]2C(=O)NCCN1CCCC1"
  tested target: "RAW264.7"
  inhibition at 20 µM [%]: 50.4
- compound: "C[C@]12CC[C@H]3[C@@H](CC=C4C[C@@H](O)CC[C@@]43C)[C@@H]1CC[C@@H]2C(=O)NC1CC1"
  tested target: "RAW264.7"
  inhibition at 20 µM [%]: 40.5
- compound: "CCCOC(=O)[C@H]1CC[C@H]2C3=CC=C4C[C@@H](O)CC[C@]4(C)[C@H]3CC[C@]12C"
  tested target: "RAW264.7"
  inhibition at 20 µM [%]: 89.4
- compound: "Cc1ccn(C(=O)[C@H]2CC[C@H]3[C@@H]4CC=C5C[C@@H](O)CC[C@]5(C)[C@H]4CC[C@]23C)n1"
  tested target: "RAW264.7"
  inhibition at 20 µM [%]: 35.8
- compound: "CC(C)CCNC(=O)[C@H]1CC[C@H]2[C@@H]3CC=C4C[C@@H](O)CC[C@]4(C)[C@H]3CC[C@]12C"
  tested target: "RAW264.7"
  inhibition at 20 µM [%]: 59.2

Consider the additional compound presented here.
Exercise: # inhibition at 20 µM lookup, item `CC(C)(O)CNC(=O)[C@H]1CC[C@H]2[C@@H]3CC=C4C[C@@H](O)CC[C@]4(C)[C@H]3CC[C@]12C`
Solution: 38.8

====

# Test system: RAW264.7
# experiment notes: Antiinflammatory activity against mouse RAW264.7 cells assessed as decrease in LPS-induced TNF-alpha mRNA expression at 20 uM in presence of LPS by qRT-PCR analysis
# Assay type: functional, cell-based
The source made the active and inactive calls. The rule behind the calls is not given here.
Pick one and only one: active, inactive

Please review the following examples before continuing.
- smiles notation: "C[C@@H]1C[C@H]2[C@@H]3CCC4=CC(=O)C=C[C@]4(C)[C@@]3(F)[C@@H](O)C[C@]2(C)[C@@]1(O)C(=O)CO"
  answer label: "active"
- smiles notation: "C[C@]12CC[C@H]3[C@@H](CC=C4C[C@@H](O)CC[C@@]43C)[C@@H]1CC[C@@H]2C(=O)n1ccnc1"
  answer label: "inactive"
- smiles notation: "CCCOC(=O)[C@H]1CC[C@H]2C3=CC=C4C[C@@H](O)CC[C@]4(C)[C@H]3CC[C@]12C"
  answer label: "active"

As a next step, examine the compound that follows.
Exercise: Dear colleague, could you share the recorded outcome for `CCCNC(=O)[C@H]1CC[C@H]2[C@@H]3CC=C4C[C@@H](O)CC[C@]4(C)[C@H]3CC[C@]12C` when you have a moment?
Solution: inactive

====

# Test system: RAW264.7
# experiment notes: Cytotoxicity against mouse RAW264.7 cells assessed as reduction in cell viability at 3 to 100 uM incubated for 24 hrs in presence of LPS by MTT assay
# Assay type: cell-based
# particulars: raw264.7, 24 h, dose 3-100 µM
recorded metric: Activity

Some entries whose results are on file:
- smiles notation: "C[C@]12CC[C@H]3[C@@H](CC=C4C[C@@H](O)CC[C@@]43C)[C@@H]1CC[C@@H]2C(=O)NC1CC1"
  Activity: "Non-Toxic"
- smiles notation: "CCCCNC(=O)[C@H]1CC[C@H]2[C@@H]3CC=C4C[C@@H](O)CC[C@]4(C)[C@H]3CC[C@]12C"
  Activity: "Non-Toxic"
- smiles notation: "CC(=O)NCCNC(=O)[C@H]1CC[C@H]2[C@@H]3CC=C4C[C@@H](O)CC[C@]4(C)[C@H]3CC[C@]12C"
  Activity: "Non-Toxic"
- smiles notation: "CC(C)CCNC(=O)[C@H]1CC[C@H]2[C@@H]3CC=C4C[C@@H](O)CC[C@]4(C)[C@H]3CC[C@]12C"
  Activity: "Non-Toxic"
- smiles notation: "C[C@]12CC[C@H]3[C@@H](CC=C4C[C@@H](O)CC[C@@]43C)[C@@H]1CC[C@@H]2C(=O)N1CCCCC1"
  Activity: "Non-Toxic"
- smiles notation: "CC(C)(O)CNC(=O)[C@H]1CC[C@H]2[C@@H]3CC=C4C[C@@H](O)CC[C@]4(C)[C@H]3CC[C@]12C"
  Activity: "Non-Toxic"

Now for the compound whose Activity we want.
Exercise: What value of Activity has been reported for the following compound? `CCCCOC(=O)[C@H]1CC[C@H]2C3=CC=C4C[C@@H](O)CC[C@]4(C)[C@H]3CC[C@]12C`
Solution: Non-Toxic
